# Test system: gastric secretion (HCl) (rat stomach)
# TEST DESCRIPTION: Shay rat: inhibition of gastric secretion (HCl) in the course of 4 h
# Format: in vivo
# CONDITION NOTES: after administration of the antiulcerous ED50, perorally, 4 h
Below, each entry is listed alongside its reported Gastric secretion (rats): % inhibition of HCl secretion.
Numbers only here, please. The scale is %.

{"COMPOUND": "COc1ccnc(CSc2nc3cc(OCC(F)(F)F)ccc3[nH]2)c1C", "TGT": "gastric secretion (HCl) (rat stomach)", "UNIT SPEC": "%", "MEASURED RESULT": 25}
{"COMPOUND": "COc1ccnc(CSc2nc3cc(OC(F)F)c(OC(F)F)cc3[nH]2)c1C", "TGT": "gastric secretion (HCl) (rat stomach)", "UNIT SPEC": "%", "MEASURED RESULT": 30}
{"COMPOUND": "COc1ccc2[nH]c([S+]([O-])Cc3ncc(C)c(OC)c3C)nc2c1 (centres unmarked) [Serial No. B, reference compound]", "TGT": "gastric secretion (HCl) (rat stomach)", "UNIT SPEC": "%", "MEASURED RESULT": 29}
{"COMPOUND": "COc1ccnc(CSc2nc3cc(OC(F)(F)C(F)F)ccc3[nH]2)c1C", "TGT": "gastric secretion (HCl) (rat stomach)", "UNIT SPEC": "%", "MEASURED RESULT": 40}
{"COMPOUND": "COc1ccnc(C[S+]([O-])c2nc3cc(OC(F)F)c(OC(F)F)cc3[nH]2)c1C (centres unmarked)", "TGT": "gastric secretion (HCl) (rat stomach)", "UNIT SPEC": "%", "MEASURED RESULT": 20}
{"COMPOUND": "COc1ccnc(C[S+]([O-])c2nc3cc(OC(F)(F)Cl)ccc3[nH]2)c1 (centres unmarked)", "TGT": "gastric secretion (HCl) (rat stomach)", "UNIT SPEC": "%", "MEASURED RESULT": 35}
{"COMPOUND": "COc1ccnc(C[S+]([O-])c2nc3cc(OC(F)(F)F)ccc3[nH]2)c1 (centres unmarked)", "TGT": "gastric secretion (HCl) (rat stomach)", "UNIT SPEC": "%", "MEASURED RESULT": 32}
{"COMPOUND": "COc1ccnc(C[S+]([O-])c2nc3cc(OC(F)(F)C(F)F)ccc3[nH]2)c1C (centres unmarked)", "TGT": "gastric secretion (HCl) (rat stomach)", "UNIT SPEC": "%", "MEASURED RESULT": 35}

Which Gastric secretion (rats): % inhibition of HCl secretion reading was recorded for the compound COc1c(C)cnc(C[S+]([O-])c2nc3cc(OC(F)(F)F)ccc3[nH]2)c1C (centres unmarked) ? 20

Which Gastric secretion (rats): % inhibition of HCl secretion reading was recorded for the compound COc1ccnc(CSc2nc3cc(OC(F)(F)F)ccc3[nH]2)c1C ? 20

Which Gastric secretion (rats): % inhibition of HCl secretion reading was recorded for the compound COc1cc(C[S+]([O-])c2nc3cc(OC(F)(F)F)ccc3[nH]2)ncc1C (centres unmarked) ? 32

Which Gastric secretion (rats): % inhibition of HCl secretion reading was recorded for the compound COc1ccnc(C[S+]([O-])c2nc3cc(OC(F)(F)C(F)F)ccc3[nH]2)c1 (centres unmarked) ? 33

Which Gastric secretion (rats): % inhibition of HCl secretion reading was recorded for the compound COc1ccnc(C[S+]([O-])c2nc3cc(OCC(F)(F)F)ccc3[nH]2)c1C (centres unmarked) ? 25

Which Gastric secretion (rats): % inhibition of HCl secretion reading was recorded for the compound COc1ccc2[nH]c(SCc3ncc(C)c(OC)c3C)nc2c1 [Serial No. A, reference compound] ? 20

Which Gastric secretion (rats): % inhibition of HCl secretion reading was recorded for the compound COc1ccc2[nH]c([S+]([O-])Cc3cc(OC)c(C)cn3)nc2c1 (centres unmarked) [Serial No. D, reference compound] ? 10
